# Tested on: HCT-15
Decision: GI50 beneath 10 µM gives rule met; GI50 meeting or exceeding 10 µM gives rule not met.

input: Take the molecule Cc1c(-c2ccccc2)nn2cc(-c3ccccc3)nnc12 and say whether its GI50 is less than 10 µM.
output: rule not met

input: Take the molecule CCOP(=O)(O)CC1OC(CO)C(O)C1O (stereo not given) and say whether its GI50 is less than 10 µM.
output: rule not met

input: Take the molecule C[C@]12CCNC(=O)C=C1CC[C@@H]1C2CC[C@@]2(C)C1CC[C@@H]2OC(=O)COc1ccc(N(CCCl)CCCl)cc1 (stereo not given in full) and say whether its GI50 is less than 10 µM.
output: rule met

input: Take the molecule CC(=O)N(CCCCNC(=O)C(F)(F)F)CCCNC(=O)C(F)(F)F and say whether its GI50 is less than 10 µM.
output: rule not met

input: Take the molecule CCc1nc2ccccc2c(=O)n1/N=C(\N=N\c1ccc(Cl)cc1)c1ccccc1Cl and say whether its GI50 is less than 10 µM.
output: rule not met

input: Take the molecule C=CCN(c1cc(OC)c(NC(C)=O)cc1[N+](=O)[O-])S(C)(=O)=O and say whether its GI50 is less than 10 µM.
output: rule not met

input: Take the molecule CC(C)OC(=O)c1ccc(NCc2cc(O)ccc2O)cc1 and say whether its GI50 is less than 10 µM.
output: rule met

input: Take the molecule Clc1ccc(C2ON=C(c3ccccc3)N2C23CC4CC(CC(C4)C2)C3)c(Cl)c1 (stereo not given) and say whether its GI50 is less than 10 µM.
output: rule not met

input: Take the molecule CCCNc1[nH]c(C(C)=O)c(N)c1C(=S)Nc1ccccc1 and say whether its GI50 is less than 10 µM.
output: rule not met

* * *

Please respond with reported GI50 for every item in the list.
# Tested on: OVCAR-5
# method-notes: NCI tumour cell line growth inhibition, 48 h
Active and inactive are the calls of the source. Cut-off read from the data, not from the text of the source: active = GI50 up to about 1.1 µM and inactive = higher.

input: Consider the molecule CN(C)c1ccc(C2SCC(=O)N2c2ccc(Oc3ccc(Cl)cc3)c(Cl)c2)cc1 (stereo not drawn) and give its measured GI50.
output: 26.4 µM (inactive)

input: Consider the molecule COc1cc(C2C(C(=O)Nc3ccccc3)=C(C)NC(C)=C2C(=O)Nc2ccccc2)ccc1O and give its measured GI50.
output: > 100 µM (inactive)

input: Consider the molecule O=C1c2cccnc2S(=O)(=O)N1c1ccc(Br)cc1 and give its measured GI50.
output: > 100 µM (inactive)

input: Consider the molecule NN/C(=N\S(=O)(=O)c1cc(Cl)c(Oc2ccc([N+](=O)[O-])cc2Cl)c(Cl)c1)Nc1ccc(Cl)cc1 and give its measured GI50.
output: 24.4 µM (inactive)

input: Consider the molecule CCOC(=O)C(NC(=O)CC(C)C)(NC(C)C)C(F)(F)F (stereo not drawn) and give its measured GI50.
output: > 100 µM (inactive)

input: Consider the molecule CSCC[C@@H](NC(=O)[C@H](CC(C)C)NC(=O)C(Cc1cnc[nH]1)NC(=O)CNC(=O)[C@@H](NC(=O)[C@H](C)NC(=O)[C@H](Cc1cn(C=O)c2ccccc12)NC(=O)[C@H](CCC(N)=O)NC(=O)[C@@H](N)CC(N)=O)C(C)C)C(N)=O (stereo partly drawn) and give its measured GI50.
output: > 100 µM (inactive)

input: Consider the molecule CC1(C)CSCC(C)(C)C(=N/N)/C1=N\N and give its measured GI50.
output: > 100 µM (inactive)

input: Consider the molecule O=S(=O)(OI(OI(OS(=O)(=O)C(F)(F)F)c1ccccc1)c1ccccc1)C(F)(F)F and give its measured GI50.
output: > 100 µM (inactive)

FYI, the data here is from ChEMBL document CHEMBL1201862.
